Give pIC50 for every item shown.
system_tested: T1, human VPAC2 receptor (human, UniProt P41587 24-438)
T1 construct: whole, on cells; Stably expressed in a CHO-S cell line
T1 sequence (looked up): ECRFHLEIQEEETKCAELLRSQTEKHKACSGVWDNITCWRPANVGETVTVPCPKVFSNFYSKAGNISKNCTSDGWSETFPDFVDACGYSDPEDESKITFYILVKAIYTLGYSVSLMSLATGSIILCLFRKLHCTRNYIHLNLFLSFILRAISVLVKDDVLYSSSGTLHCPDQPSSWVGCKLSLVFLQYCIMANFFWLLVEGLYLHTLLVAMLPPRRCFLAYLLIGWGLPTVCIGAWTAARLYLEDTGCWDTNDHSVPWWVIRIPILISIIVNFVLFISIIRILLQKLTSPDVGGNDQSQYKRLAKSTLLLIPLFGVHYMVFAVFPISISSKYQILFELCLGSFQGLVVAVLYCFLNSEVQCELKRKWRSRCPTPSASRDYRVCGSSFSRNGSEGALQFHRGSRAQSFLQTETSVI
assay: filter binding, human VPAC2 membranes, competition with 125I-VIP;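 further: assay plate incubated 1 h with shaking, then filtered, with filter-retained counts measured after adding scintillant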
Square brackets hold non-standard residues; d marks the D form. Ends that are not written are not given here. * marks the point of attachment. Orn = NCCC[C@H](N)C(=O)O; Hexanoyl = CCCCCC(=O)*; Aib = CC(C)(N)C(=O)O
Please keep in mind that pIC50 is minus log10 of the molar concentration; only the number is needed.

So for Hexanoyl-HSDAVFTDNYT[Orn]LLAKLALQKYLQSI[Orn]N[Orn]GGPSSGAPPPS [VPAC2 receptor peptide agonist P371] , the logged pIC50 turned out to be 9.47

pIC50 reported for this binder HSDAVFTDNYTXLRXQVAAXSYLQSIXNXGGPSSGAPPPS (N-terminal hexanoyl (C6); Orn at 12, 27 and 29; Aib at 15 and 20) [VPAC2 receptor peptide agonist P386] : 8.23

Reported pIC50 of HSDAVFTDNYTXLRXQVAAXKYLSSIXNXGGPSSGAPPPS (N-terminal hexanoyl (C6); Orn at 12, 27 and 29; Aib at 15 and 20) [VPAC2 receptor peptide agonist P383] : 8.30

Notebook: HSDAVFTEQYTXLRXQLAAXXYLQSIXXGGPSSGAPPPS (N-terminal hexanoyl (C6); Tyr(OMe) at 10 and 22; Orn at 12, 21, 27 and 28; Aib at 15 and 20) [VPAC2 receptor peptide agonist P418] , pIC50 read as 8.05

Field pIC50 (entry Hexanoyl-HSDAVFTDNYTFLR[Aib]QVAA[Aib]KYLQSI[Orn]N[Orn]GGPSSGAPPPS [VPAC2 receptor peptide agonist P369] ) reads 7.43

Entry Hexanoyl-HSDAVFTDNYTQLR[Aib]QVAA[Aib]KYLQSI[Orn]N[Orn]GGPSSGAPPPS [VPAC2 receptor peptide agonist P368] — recorded pIC50 = 7.54

Record Hexanoyl-HSDAVFTDSYT[Orn]LR[Aib]QVAA[Aib]KYLQSI[Orn]N[Orn]GGPSSGAPPPS [VPAC2 receptor peptide agonist P392] . Reported pIC50: 9.35

// field: pIC50; key: HSDAVFTDNYTXLRXQVAAXXYLQSIXXGGPSSGAPPPS (N-terminal hexanoyl (C6); Orn at 12, 21, 27 and 28; Aib at 15 and 20) [VPAC2 receptor peptide agonist P397] ; value = 9.30

Record HSDAVFTDNYTXLRXQVAAXKSLQSIXNXGGPSSGAPPPS (N-terminal hexanoyl (C6); Orn at 12, 27 and 29; Aib at 15 and 20) [VPAC2 receptor peptide agonist P385] . Reported pIC50: 7.00

Lab note: HSDAVFTDNYTXLRXQVAAXKYLQSSXNXGGPSSGAPPPS (N-terminal hexanoyl (C6); Orn at 12, 27 and 29; Aib at 15 and 20) [VPAC2 receptor peptide agonist P382] gave pIC50 of 8.66

The value of pIC50 measured for the binder HSDAVFTDNYTXLRXQVAAXKYLQSIKNKRYGGPSSGAPPPS (N-terminal hexanoyl (C6); hR (homoarginine) at 12; Aib at 15 and 20) [VPAC2 receptor peptide agonist P343] turned out to be 9.07

Value of measured pIC50 for the entry HSEAVFTEQYTXLRXQLAAXXYLQSIXXGGPSSGAPPPS (N-terminal hexanoyl (C6); Tyr(OMe) at 10; Orn at 12, 21, 27 and 28; Aib at 15 and 20) [VPAC2 receptor peptide agonist P393] : 9.13

Short answer for Hexanoyl-HSDAVFTDNYT[Orn]SR[Aib]QVAA[Aib]KYLQSI[Orn]N[Orn]GGPSSGAPPPS [VPAC2 receptor peptide agonist P391] : pIC50 was 8.44

Data origin, for the record: patent US20080194482A1
